system: healthy animals; assay: Effect of the compounds on healthy animals (same in vivo assay, cerebral oxidative parameters); parameters: species or system mice; details: healthy mice, 50 mg/kg IP x3 days; percentage change relative to the vehicle
ASSAY_ENDPOINT: Brain/BWi (%)
Respond numerically; units are % and should not be typed.

Input line: For healthy animals, give Brain/BWi of the listed compound: CC1=NN(c2ccccc2)C(=O)C1C1COCCN1O (centres unmarked) [(11)]
Output line: -2.7

Input line: Determine reported Brain/BWi for CC1=NN(c2ccccc2)C(=O)C1 [edaravone, reference compound] ; test system: healthy animals.
Output line: 2.7

Input line: Tell me its Brain/BWi on healthy animals: O=C1CCC(=O)C1C1COCCN1O (centres unmarked) [(7)]
Output line: -9.8

Input line: Return reported Brain/BWi for target or system healthy animals, item CC1(C)CC(=O)C(C2CCCCN2O)C(=O)C1 (centres unmarked) [(3)] .
Output line: 1.4

Input line: Provide measured Brain/BWi on healthy animals for CC1(C)CCN(O)C(C2C(=O)CC(c3ccccc3)CC2=O)C1 (centres unmarked) [(2)] please.
Output line: 7.6
